# Tested on: endogenous target monocytes in human PBMC
# method: PBMC ex vivo monocyte depletion flow cytometry assay (Example 200)
# Format: cell-based
# condition_summary: with anti-cotinine antibody (SEQ ID NO: 11/12), 18-24 hours, EC50 in molar, read-out: Ex Vivo Depletion Assay pEC50 (converted)
# Procedure: A human PBMC (peripheral blood mononuclear cells) monocyte depletion flow cytometry assay was developed to screen compounds in a 384-well plate format. This assay incorporated endogenous natural killer cells to deplete endogenous target monocytes. To screen compounds in the human PBMC monocyte depletion flow cytometry assay, 11-point dose-response curves were made from 1 mM stocks in neat DMSO by serially diluting an ARM compound of Formula (I) four-fold into a 384-well plate row-wise. […]
I'd be grateful if you could share measured log10 EC50 for these entries.
The base-10 logarithm of EC50, taken with EC50 in nM, is what appears here.

item_smiles	target_under_test	log10 EC50
CC(C)N(C)[C@@H]1CC[C@H](N2CC[C@H](Nc3ncnc4ccc(C(F)(F)F)cc34)C2=O)[C@H](NC(=O)c2cccc(NCCOCCOCCOCCOCCOCCNC(=O)[C@H]3CC(=O)N(C)[C@@H]3c3cccnc3)n2)C1	endogenous target monocytes in human PBMC	5.00
CC(C)N(C)[C@@H]1CC[C@H](N2CC[C@H](Nc3ncnc4ccc(C(F)(F)F)cc34)C2=O)[C@H](NC(=O)COCCNC(=O)COCCNC(=O)CCOCCNC(=O)[C@H]2CC(=O)N(C)[C@@H]2c2cccnc2)C1	endogenous target monocytes in human PBMC	0.30
CC(C)N(C)[C@@H]1CC[C@H](N2CC[C@H](Nc3ncnc4ccc(C(F)(F)F)cc34)C2=O)[C@H](NC(=O)c2cc(OCCOCCOCCOCCOCCNC(=O)[C@H]3CC(=O)N(C)[C@@H]3c3cccnc3)ccn2)C1	endogenous target monocytes in human PBMC	0.90
CC(C)N(C)[C@@H]1CC[C@H](N2CC[C@H](Nc3ncnc4ccc(C(F)(F)F)cc34)C2=O)[C@H](NC(=O)CCCC(=O)NCCCOCCCNC(=O)CCCNC(=O)[C@H]2CC(=O)N(C)[C@@H]2c2cccnc2)C1	endogenous target monocytes in human PBMC	-0.10
CC(C)N(C)[C@@H]1CC[C@H](N2CC[C@H](Nc3ncnc4ccc(C(F)(F)F)cc34)C2=O)[C@H](NC(=O)c2ccnc(CCCOCCOCCOCCOCCNC(=O)[C@H]3CC(=O)N(C)[C@@H]3c3cccnc3)c2)C1	endogenous target monocytes in human PBMC	1.50
CC(C)N(C)[C@@H]1CC[C@H](N2CC[C@H](Nc3ncnc4ccc(C(F)(F)F)cc34)C2=O)[C@H](NC(=O)c2ccc(NCCOCCOCCOCCOCCNC(=O)[C@H]3CC(=O)N(C)[C@@H]3c3cccnc3)nc2)C1	endogenous target monocytes in human PBMC	0.20

Give log10 EC50 for all molecules that follow.
1. CC(C)N(C)[C@@H]1CC[C@H](N2CC[C@H](Nc3ncnc4ccc(C(F)(F)F)cc34)C2=O)[C@H](NC(=O)c2ccc(OC3CCN(CCOCCOCCNC(=O)[C@H]4CC(=O)N(C)[C@@H]4c4cccnc4)CC3)cc2)C1
2. CC(C)N(C)[C@@H]1CC[C@H](N2CC[C@H](Nc3ncnc4ccc(C(F)(F)F)cc34)C2=O)[C@H](NC(=O)CNC(=O)[C@H]2CC[C@@H](NC(=O)COCCOCCNC(=O)[C@H]3CC(=O)N(C)[C@@H]3c3cccnc3)CC2)C1
3. CC(C)N(C)[C@@H]1CC[C@H](N2CC[C@H](Nc3ncnc4ccc(C(F)(F)F)cc34)C2=O)[C@H](NC(=O)[C@H]2CC[C@H](NC(=O)CCCOCCCCOCCNC(=O)[C@H]3CC(=O)N(C)[C@@H]3c3cccnc3)CC2)C1

1. -0.10
2. 1.00
3. 0.10
